species on record: Rattus norvegicus; assay: DrugMatrix - Regimen: Daily Repeat; type: toxicity, organism-based, Sprague-Dawley; parameters: regimen Daily Repeat, gender Male, age 6-8 weeks; conditions: in vivo, po, 0 mg/kg, 120 h, tissue Plasma, route oral GAVAGE, dose level Control, time 5 day, vehicle .5 % CMC
# POTASSIUM per record follows
Give your result in MEQ/L as a bare value.

Some entries whose results are on file:
Dear colleague, I am looking for the recorded POTASSIUM of the following compound: CC(C)[C@H](N)C(=O)OCCOCn1cnc2c(=O)[nH]c(N)nc21 [VALACYCLOVIR]
6.57

One more compound: O=c1cc(-c2ccccc2)oc2c1ccc1ccccc12 [ALPHA-NAPHTHOFLAVONE]
7

The record that follows has no POTASSIUM shown yet.
// returns reported POTASSIUM for input CCC[C@@H]1C[C@@H](C(=O)N[C@@H]([C@H]2O[C@H](SC)[C@H](O)[C@@H](O)[C@H]2O)[C@@H](C)O)N(C)C1 [LINCOMYCIN]
7.08

---

species: Rattus norvegicus; test: DrugMatrix - Regimen: Daily Repeat; type: toxicity, organism-based, Sprague-Dawley; parameters: regimen Daily Repeat, gender Male, age 6-8 weeks; conditions: in vivo, po, 1500 mg/kg, 120 h, tissue Plasma, route oral GAVAGE, dose level High, time 5 day, vehicle .5 % CMC
Parameter: GLUCOSE (mg/dL)
Record the value in mg/dL, omitting the unit from your answer.

I'd like to know its GLUCOSE. The molecule in question is `O=C1CCc2cc(OCCCCc3nnnn3C3CCCCC3)ccc2N1`
184.33

Also, `COC(=O)c1ccc(O)cc1` please.
154.33

Queued: `CCOC(=O)[C@H](CCc1ccccc1)N[C@@H](C)C(=O)N1[C@H](C(=O)O)C[C@@H]2CCC[C@@H]21`
150.33

And for NS(=O)(=O)c1cc2c(cc1Cl)NCNS2(=O)=O [HYDROCHLOROTHIAZIDE] ?
153.33

---

Recorded measurements of GLUCOSE, one per entry
species: Rattus norvegicus; assay: DrugMatrix - Regimen: Daily Repeat; assay type: toxicity, organism-based, Sprague-Dawley; parameters: regimen Daily Repeat, gender Male, age 6-8 weeks; conditions: in vivo, po, 0 mg/kg, 120 h, tissue Plasma, route oral GAVAGE, dose level Control, time 5 day, vehicle 100 % WATER
Dear colleague, please return just the value in mg/dL, with no unit written.

Suppose we examine the compound Cc1cc(NS(=O)(=O)c2ccc(N)cc2)no1 [SULFAMETHOXAZOLE] ; what GLUCOSE value has been reported?
148.33

---
Quick one: GLUCOSE for CC1COc2c(N3CCN(C)CC3)c(F)cc3c(=O)c(C(=O)O)cn1c23 (stereo not given) [OFLOXACIN] ?
156.5

Then COc1ccc(C(CN(C)C)C2(O)CCCCC2)cc1 (stereo not given) [VENLAFAXINE] ?
148.33

---

species on record: Rattus norvegicus; assay: DrugMatrix - Regimen: Daily Repeat; assay type: toxicity, organism-based, Sprague-Dawley; set-up: regimen Daily Repeat, gender Male, age 6-8 weeks; details: in vivo, po, 0 mg/kg, 72 h, tissue Blood, route oral GAVAGE, dose level Control, time 3 day, vehicle .5 % CMC
Overview of reported HEMATOCRIT across a group of compounds:
Could you give me the number in %? Just the number is fine.

Some entries whose results are on file:
Item COc1c(C)c2c(c(O)c1C/C=C(\C)CCC(=O)OCCN1CCOCC1)C(=O)OC2 [MYCOPHENOLATE MOFETIL] has what recorded HEMATOCRIT?
35.45

Repeat with `NCC(=O)O`
37.62

Thanks! And `C=C1CC[C@H](O)C/C1=C/C=C1\CCC[C@]2(C)[C@@H]([C@H](C)/C=C/[C@H](C)C(C)C)CC[C@@H]12` ?
32.6

How about this compound: `CCC[C@@H]1C[C@@H](C(=O)N[C@@H]([C@H]2O[C@H](SC)[C@H](O)[C@@H](O)[C@H]2O)[C@@H](C)O)N(C)C1`
36.57

Further cases:
// HEMATOCRIT lookup, key: CCc1cccc2c3c([nH]c12)C(CC)(CC(=O)O)OCC3 (stereo not given)
44.65
